Here, each record is paired with measured pIC50 data.
System: NCI-H1299
Assay: Antiproliferative activity against human NCI-H1299 cells after 72 hrs by CCK8 assay
Assay type: functional, cell-based
Conditions: NCI-H1299, 72 h
pIC50: −log10 of the molar value.
metric-name: pIC50

{"compound": "CCOc1cc(C(C)(C)C)ccc1C1=NC(c2ccc(Cl)cc2)C(c2ccc(Cl)cc2)N1C(=O)N1CCN(CC(=O)NO)CC1 (stereo not drawn)", "measured-result": 4.94}
{"compound": "CCOc1cc(C(C)(C)C)ccc1C1=NC(c2ccc(Cl)cc2)C(c2ccc(Cl)cc2)N1C(=O)N1CCN(CCCCCC(=O)NO)CC1 (stereo not drawn)", "measured-result": 5.03}
{"compound": "CCOc1cc(C(C)(C)C)ccc1C1=NC(c2ccc(Cl)cc2)C(c2ccc(Cl)cc2)N1C(=O)NCCCCC(=O)NO (stereo not drawn)", "measured-result": 4.79}
